Experiment: Selectivity index, ratio of IC50 for HEK293 cells to IC50 for human MCF7 cells
Format: toxicity
Conditions: HEK293 cells versus MCF7 cells, read-out: Ratio IC50
Reported selectivity ratio values follow for various molecules

1. COc1cc(NC(C)CCCNC(=O)CCCC(=O)NCCCC(C)Nc2cc(OC)cc3cccnc23)c2ncccc2c1 (centres undefined)
1.6 to 31
2. COc1cc(NC(C)CCCNC(=O)CCCCC(=O)NCCCC(C)Nc2cc(OC)cc3cccnc23)c2ncccc2c1 (centres undefined)
7.3 to 56
3. COc1cc(NC(C)CCCNC(=O)/C=C\C(=O)NCCCC(C)Nc2cc(OC)cc3cccnc23)c2ncccc2c1 (centres undefined)
1.6 to 31

For COc1cc(NC(C)CCCNC(=O)CCCCCC(=O)NCCCC(C)Nc2cc(OC)cc3cccnc23)c2ncccc2c1 (centres undefined) , what is its reported selectivity ratio?
1.6 to 31
